Attribution: PubChem BioAssay AID1918993

system: 233499-124-R-J3-PDC complex spheroid growth; assay: Anticancer human tumor 233499-124-R-J3-PDC patient-derived colon adenocarcinoma cell line growth inhibition [AhR]; details: second compound 0.1 µM; first compound 0.000949 µM; active compounds read low;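 further: spheroids exposed to agents for seven days before reading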
// returns Not fulfilled unless viability, T/C is strictly below 90%, in which case Fulfilled

Below, 5 molecules whose answers are already recorded.
Molecule | Category
CC(C)CC(NC(=O)C(Cc1ccccc1)NC(=O)c1cnccn1)B(O)O (centres undefined) + Cc1ccccc1N=Nc1ccc(NC(=O)c2ccnn2C)c(C)c1 | Not fulfilled
CC(C)CC(NC(=O)C(Cc1ccccc1)NC(=O)c1cnccn1)B(O)O (centres undefined) + Cc1cncc(-c2nc(NCCc3c[nH]c4ccccc34)c3ncn(C(C)C)c3n2)c1 | Not fulfilled
CCc1c2c(nc3ccc(O)cc13)-c1cc3c(c(=O)n1C2)COC(=O)[C@]3(O)CC + Cc1ccccc1N=Nc1ccc(NC(=O)c2ccnn2C)c(C)c1 | Not fulfilled
Nc1ncn(C2CC(O)C(CO)S2)c(=O)n1 (centres undefined) + CC(CO)NC(=O)c1cc(-c2ccc(Cl)cc2)nn(-c2cnn(C)c2)c1=O | Not fulfilled
CCc1c2c(nc3ccc(O)cc13)-c1cc3c(c(=O)n1C2)COC(=O)[C@]3(O)CC + Cc1cncc(-c2nc(NCCc3c[nH]c4ccccc34)c3ncn(C(C)C)c3n2)c1 | Not fulfilled

# next molecule below
Query block: # check: viability, T/C < 90% for CCc1c2c(nc3ccc(O)cc13)-c1cc3c(c(=O)n1C2)COC(=O)[C@]3(O)CC + CC(CO)NC(=O)c1cc(-c2ccc(Cl)cc2)nn(-c2cnn(C)c2)c1=O
Result block: Fulfilled
